experimental_context: human gut metagenome, 24 h, 2 µM; also: call rule not given here
reported_endpoint: Bacterial Biotransformation

Known Bacterial Biotransformation results, listed for orientation:
O=c1[nH]c2ccccc2n1CCCN1CCC(n2c(=O)[nH]c3cc(Cl)ccc32)CC1 :: Compound NOT metabolized
CC(C)(C(=O)O)c1ccc(C(O)CCCN2CCC(C(O)(c3ccccc3)c3ccccc3)CC2)cc1 (stereo not drawn) [FEXOFENADINE] :: Compound NOT metabolized
Nc1ccc(/N=N/c2ccccc2)c(N)n1 :: Compound metabolized
CC(C)N(CCC(C(N)=O)(c1ccccc1)c1ccccn1)C(C)C.O=P(O)(O)O (stereo not drawn) [DISOPYRAMIDE PHOSPHATE] :: Compound NOT metabolized
NC12CC3CC(CC(C3)C1)C2 :: Compound NOT metabolized
C#C[C@]1(O)CC[C@H]2[C@@H]3CCC4=Cc5oncc5C[C@]4(C)[C@H]3CC[C@@]21C :: Compound NOT metabolized
Cc1ccc(S(=O)(=O)NC(=O)NN2CCCCCC2)cc1 [TOLAZAMIDE] :: Compound NOT metabolized

We next turn to a different compound, shown below.
In: Output Bacterial Biotransformation of C[C@@H](CO)NC(=O)[C@@H]1C=C2c3cccc4[nH]cc(c34)C[C@H]2N(C)C1.O=C(O)/C=C\C(=O)O [ERGONOVINE MALEATE]
Out: Compound metabolized

* * *

assay_procedure: The drug is tested on Z-009 corresponding to pig gut metagenome with ENA study accession number: PRJEB37062 and ENA sample accession number: ERS12561809 for biotransformation under anaerobic condition. The drug concentrations were measured over 9 timepoints collected between 0 and 24 hours of incubation by liquid-chromatography-coupled mass spectrometry (LC–MS)
experimental_context: 2 µM
reported_endpoint: Bacterial Biotransformation

Known Bacterial Biotransformation results, listed for orientation:
CCN(CC)CCOC(=O)C(Cc1cccc2ccccc12)CC1CCCO1.O=C(O)C(=O)O (stereo not given) [NAFRONYL OXALATE] :: Compound metabolized
CN1CCN(C2=Nc3cc(Cl)ccc3Nc3ccccc32)CC1 [CLOZAPINE] :: Compound NOT metabolized
CN1C(=O)CCS(=O)(=O)C1c1ccc(Cl)cc1 (stereo not given) [CHLORMEZANONE] :: Compound NOT metabolized
CN(C)CC(c1ccc(O)cc1)C1(O)CCCCC1.O=C(O)CCC(=O)O (stereo not given) [DESVENLAFAXINE SUCCINATE] :: Compound NOT metabolized

In: Output Bacterial Biotransformation of COc1c2occc2cc2ccc(=O)oc12 [METHOXSALEN]
Out: Compound metabolized

* * *

assay_procedure: The drug is tested on WLS-082 corresponding to human gut metagenome with ENA study accession number: PRJEB37062 and ENA sample accession number: ERS12561751 for biotransformation under anaerobic condition. The drug concentrations were measured over 9 timepoints collected between 0 and 24 hours of incubation by liquid-chromatography-coupled mass spectrometry (LC–MS)
experimental_context: 2 µM
reported_endpoint: Bacterial Biotransformation

Known Bacterial Biotransformation results, listed for orientation:
O=C1NCC2(CCN(CCc3ccccc3)CC2)O1 [FENSPIRIDE] :: Compound NOT metabolized
C=CCc1ccccc1OCC(O)CNC(C)C (centres undefined) [ALPRENOLOL] :: Compound NOT metabolized
CNC(=C[N+](=O)[O-])NCCSCc1csc(CN(C)C)n1 [NIZATIDINE] :: Compound NOT metabolized
Cc1ccc(S(=O)(=O)NC(=O)NN2CC3CCCC3C2)cc1 (centres undefined) [GLICLAZIDE] :: Compound metabolized
OC(CCN1CCCCC1)(c1ccccc1)C1CC2C=CC1C2 (centres undefined) [BIPERIDEN] :: Compound NOT metabolized
CC(C)(C#N)c1cc(Cn2cncn2)cc(C(C)(C)C#N)c1 [ANASTROZOLE] :: Compound NOT metabolized
CC(=O)O[C@]1(C(C)=O)CC[C@H]2[C@@H]3C=C(Cl)C4=CC(=O)[C@@H]5C[C@@H]5[C@]4(C)[C@H]3CC[C@@]21C [CYPROTERONE ACETATE] :: Compound NOT metabolized
CC(=O)CC(c1ccccc1)c1c(O)c2ccccc2oc1=O (centres undefined) [WARFARIN] :: Compound metabolized
CN(C(=O)CN(CCO)CC(=O)N(C)C(C)(C)Cc1ccccc1)C(C)(C)Cc1ccccc1 [OXETHAZAINE] :: Compound metabolized
OC(Cn1cncn1)(Cn1cncn1)c1ccc(F)cc1F [FLUCONAZOLE] :: Compound metabolized

In: Output Bacterial Biotransformation of CCc1nc(N)nc(N)c1-c1ccc(Cl)cc1 [PYRIMETHAMINE]
Out: Compound NOT metabolized

In: Output Bacterial Biotransformation of CN1CCN(C2=Nc3cc(Cl)ccc3Nc3ccccc32)CC1 [CLOZAPINE]
Out: Compound NOT metabolized

* * *

assay_procedure: The drug is tested on WLS-069 corresponding to human gut metagenome with ENA study accession number: PRJEB37062 and ENA sample accession number: ERS12561748 for biotransformation under anaerobic condition. The drug concentrations were measured over 9 timepoints collected between 0 and 24 hours of incubation by liquid-chromatography-coupled mass spectrometry (LC–MS)
experimental_context: 2 µM
reported_endpoint: Bacterial Biotransformation

Known Bacterial Biotransformation results, listed for orientation:
CN1CCN(CC/C=C2/c3ccccc3Sc3ccc(S(=O)(=O)N(C)C)cc32)CC1 :: Compound metabolized
C#C[C@]1(O)CC[C@H]2[C@@H]3CCC4=Cc5oncc5C[C@]4(C)[C@H]3CC[C@@]21C :: Compound metabolized
Clc1ccc(Cn2c(CN3CCCC3)nc3ccccc32)cc1 :: Compound metabolized
Nc1ccc(/N=N/c2ccccc2)c(N)n1 :: Compound metabolized
CC(CN(C)C)CN1c2ccccc2CCc2ccccc21.O=C(O)/C=C\C(=O)O (configuration not stated) [TRIMIPRAMINE MALEATE] :: Compound metabolized
CN(C)C(=O)C(CCN1CCC(O)(c2ccc(Cl)cc2)CC1)(c1ccccc1)c1ccccc1 [LOPERAMIDE] :: Compound metabolized

In: Output Bacterial Biotransformation of CCN(CC)CCNC(C(=O)OCCC(C)C)c1ccccc1.Cl.Cl (configuration not stated)
Out: Compound metabolized

In: Output Bacterial Biotransformation of Cc1ccc(-c2cc(C(F)(F)F)nn2-c2ccc(S(N)(=O)=O)cc2)cc1
Out: Compound metabolized

In: Output Bacterial Biotransformation of COC(=O)[C@H]1[C@H]2C[C@@H]3c4[nH]c5cc(OC)ccc5c4CCN3C[C@H]2C[C@@H](OC(=O)c2cc(OC)c(OC)c(OC)c2)[C@@H]1OC
Out: Compound metabolized

In: Output Bacterial Biotransformation of O=C(O)CCc1nc(-c2ccccc2)c(-c2ccccc2)o1
Out: Compound metabolized

In: Output Bacterial Biotransformation of NS(=O)(=O)c1cc2c(cc1Cl)N=C(CSCc1ccccc1)NS2(=O)=O [BENZTHIAZIDE]
Out: Compound NOT metabolized

* * *

experimental_context: human gut metagenome, 24 h, 2 µM
reported_endpoint: Bacterial Biotransformation

CN1CCN(C2=Nc3cc(Cl)ccc3Nc3ccccc32)CC1 :: Compound metabolized
Cc1ccc(S(=O)(=O)NC(=O)NN2CCCCCC2)cc1 [TOLAZAMIDE] :: Compound metabolized
Nc1c2c(nc3ccccc13)CCCC2 :: Compound metabolized
CCCCC1=NC2(CCCC2)C(=O)N1Cc1ccc(-c2ccccc2-c2nnn[nH]2)cc1 :: Compound metabolized

In: Output Bacterial Biotransformation of Cc1ccc(S(=O)(=O)NC(=O)NN2CC3CCCC3C2)cc1 (configuration not stated) [GLICLAZIDE]
Out: Compound metabolized

* * *

assay_procedure: The drug is tested on WLS-052 corresponding to human gut metagenome with ENA study accession number: PRJEB37062 and ENA sample accession number: ERS12561747 for biotransformation under anaerobic condition. The drug concentrations were measured over 9 timepoints collected between 0 and 24 hours of incubation by liquid-chromatography-coupled mass spectrometry (LC–MS)
experimental_context: 2 µM
reported_endpoint: Bacterial Biotransformation

COC(=O)C1=C(C)NC(C)=C(C(=O)OC(C)C)C1c1cccc2nonc12 (centres undefined) :: Compound metabolized
CC(C(=O)O)c1ccc2c(c1)Cc1cccnc1O2 (centres undefined) :: Compound metabolized
CC(=O)OCC(=O)[C@@]12N=C(C)O[C@@H]1C[C@H]1[C@@H]3CCC4=CC(=O)C=C[C@]4(C)[C@H]3[C@@H](O)C[C@@]12C :: Compound metabolized

* * *

experimental_context: human gut metagenome, 24 h, 2 µM
reported_endpoint: Bacterial Biotransformation

CC(CN(C)C)CN1c2ccccc2CCc2ccccc21.O=C(O)/C=C\C(=O)O (stereo not given) [TRIMIPRAMINE MALEATE] :: Compound metabolized
NC(CO)(CO)CO.O=C(c1ccccc1)c1ccc2n1CCC2C(=O)O (stereo not given) :: Compound metabolized
CN1CCN(C(=O)O[C@H]2c3nccnc3C(=O)N2c2ccc(Cl)cn2)CC1 :: Compound NOT metabolized
c1ccc([C@H]2CN3CCSC3=N2)cc1 :: Compound metabolized

In: Output Bacterial Biotransformation of CCOC(=O)[C@H](CCc1ccccc1)N[C@@H](C)C(=O)N1[C@H](C(=O)O)C[C@H]2CCCC[C@@H]21
Out: Compound metabolized

In: Output Bacterial Biotransformation of O=C(CCCN1CCC(O)(c2ccc(Cl)cc2)CC1)c1ccc(F)cc1
Out: Compound metabolized

In: Output Bacterial Biotransformation of CC(Oc1c(Cl)cccc1Cl)C1=NCCN1 (stereo not given)
Out: Compound NOT metabolized
